# System: HEK-293T
# assay-notes: Inhibition of influenza A virus HA-tagged polymerase acidic protien transfected in HEK293T cells after 24 hrs by ELISA
# Assay type: cell-based
Calls of active or inactive are those of the source. The calls are words filed in the database; no cut-off is given here.
endpoint: inhibition

Study these solved cases before continuing.
Incoming: Quick check: inhibition of COc1ccc(Oc2ccc([N+](=O)[O-])c3nonc23)cc1 ?
Outgoing: Active

Incoming: Try this compound too: O=[N+]([O-])c1ccc(Sc2ccc(F)cc2)c2nonc12
Outgoing: Active

Incoming: Lookup O=[N+]([O-])c1cccc(CSc2ccc([N+](=O)[O-])c3nonc23)c1
Outgoing: Active

Incoming: Also O=[N+]([O-])c1ccc(SCc2ccccc2)c2nonc12 ?
Outgoing: Active

Incoming: Another compound: O=[N+]([O-])c1ccc(Sc2ccccc2Br)c2nonc12
Outgoing: Active

More entries:
Incoming: Entry O=[N+]([O-])c1ccc(SCc2ccc(Br)cc2)c2nonc12 has what inhibition?
Outgoing: Active

Incoming: // repeat for O=[N+]([O-])c1ccc(OCc2ccccc2)c2nonc12 and report
Outgoing: Active

Incoming: // query: O=Cc1ccc(Oc2ccc([N+](=O)[O-])c3nonc23)cc1
Outgoing: Active

Incoming: Thanks! And O=[N+]([O-])c1ccc(Oc2cccc(Br)c2)c2nonc12 ?
Outgoing: Active

Incoming: What about CNc1ccc(SCc2ccc(OC)cc2)c2nonc12 ?
Outgoing: Active

Incoming: Next record, please: O=[N+]([O-])c1ccc(Oc2ccc(CCO)cc2)c2nonc12
Outgoing: Active

Incoming: And for O=[N+]([O-])c1ccc(Nc2ccccc2O)c2nonc12 ?
Outgoing: Active

====

# Test system: MDCK
# assay-notes: Cytotoxicity against MDCK cells
# Type: cell-based, Canis lupus familiaris
# settings: dog
endpoint: Cytotoxic concentration

Incoming: Fill in: Cytotoxic concentration of O=[N+]([O-])c1ccc(Nc2ccccc2S)c2nonc12 is ___
Outgoing: > 80 µM

Incoming: Note, next up: O=Cc1ccc(Oc2ccc([N+](=O)[O-])c3nonc23)cc1
Outgoing: > 40 µM

Incoming: Continue with O=[N+]([O-])c1ccc(Oc2cccc(Br)c2)c2nonc12
Outgoing: > 40 µM

Incoming: Lookup O=[N+]([O-])c1ccc(SCc2ccc(Br)cc2)c2nonc12
Outgoing: > 10 µM
